Biological target: CDK5/p35 (Homo sapiens)
Sequence (Q00535 whole entry, species assumed): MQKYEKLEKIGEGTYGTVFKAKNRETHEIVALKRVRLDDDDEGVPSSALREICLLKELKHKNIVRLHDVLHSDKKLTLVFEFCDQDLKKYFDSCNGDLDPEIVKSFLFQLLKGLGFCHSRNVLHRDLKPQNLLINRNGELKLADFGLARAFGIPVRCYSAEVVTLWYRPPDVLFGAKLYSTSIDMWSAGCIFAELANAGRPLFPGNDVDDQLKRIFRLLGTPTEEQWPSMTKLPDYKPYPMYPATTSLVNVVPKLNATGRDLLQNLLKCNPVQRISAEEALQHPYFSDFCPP
Sequence (Q15078 whole entry partner, species assumed): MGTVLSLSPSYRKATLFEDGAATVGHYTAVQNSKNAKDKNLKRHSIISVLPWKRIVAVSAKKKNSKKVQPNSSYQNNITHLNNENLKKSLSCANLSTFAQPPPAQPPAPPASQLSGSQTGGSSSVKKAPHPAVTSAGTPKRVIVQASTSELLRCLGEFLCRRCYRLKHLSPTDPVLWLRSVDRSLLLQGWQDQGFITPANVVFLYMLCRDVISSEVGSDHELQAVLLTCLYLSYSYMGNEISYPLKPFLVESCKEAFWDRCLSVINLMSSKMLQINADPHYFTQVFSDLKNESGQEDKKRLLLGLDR
Experiment: Kinase selectivity panel: CDK5/p35
pIC50: −log10 of the molar value.
property_name: pIC50

input_smiles	tgt	pIC50
COc1ccc2c(c1)/C(=C/c1cnc(C(C)(C)C)[nH]1)C(=O)N2	CDK5/p35 (Homo sapiens)	< 5.00
COc1ccc2c(c1)/C(=C/c1cnc(C(C)C)[nH]1)C(=O)N2	CDK5/p35 (Homo sapiens)	< 5.00
Cc1ncc(/C=C2\C(=O)Nc3ccc(OC(C)C)cc32)[nH]1	CDK5/p35 (Homo sapiens)	6.59

Per the records, this compound ( COc1ccc2c(c1)/C(=C/c1cnc(C3CCOCC3)[nH]1)C(=O)N2 ) has pIC50 equal to < 5.00
